Target: OsSMF1 (Oryza sativa, UniProt Q6ZLB0 1-436)
Sequence: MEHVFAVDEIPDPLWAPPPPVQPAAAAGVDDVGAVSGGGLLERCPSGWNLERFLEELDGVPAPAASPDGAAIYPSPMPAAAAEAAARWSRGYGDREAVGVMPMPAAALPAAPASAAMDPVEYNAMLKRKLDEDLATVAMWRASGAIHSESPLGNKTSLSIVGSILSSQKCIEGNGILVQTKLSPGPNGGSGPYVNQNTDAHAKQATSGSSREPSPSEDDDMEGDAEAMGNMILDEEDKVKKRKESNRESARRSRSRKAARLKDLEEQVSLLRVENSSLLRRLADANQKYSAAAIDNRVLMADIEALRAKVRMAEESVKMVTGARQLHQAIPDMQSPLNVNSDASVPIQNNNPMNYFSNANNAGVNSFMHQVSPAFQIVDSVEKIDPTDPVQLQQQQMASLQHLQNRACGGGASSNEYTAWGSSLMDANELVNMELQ
Test: protein-binding microarray (RPBM); PBS, 2% BSA, 51.3 ng/ul salmon testes DNA, 50 uM zinc acetate, 200 nM TF, 25 C, 1 h; high values mean tight binding
Conditions: protein: recombinant; tags: N-terminal polyhistidine and DsRed monomer fusion (pET32a); chain copies: 2; label: CyDye5-dUTP incorporated in the synthesized complementary strand; 3' TTTTT single-stranded linker to array surface; dsDNA, one strand shown
The full ranking holds about 39,000 sequences; the median of “fluorescence intensity (a.u.)” is about 4,300, and the highest 2% start at about 39,000. The list comes from a sample in which the highest values are over-represented; it also holds close analogues and randomly drawn sequences.
Each entry below carries its reported binding signal.

Before answering, review these 5 worked examples.
[[record]]
entry_sequence = "GTGGCCACTTGCATCAGCCGGCCATGAGTGGAGGGGTAAGCGGAGTCACCTAGTGCAG"
readout_type = "binding signal"
result = "49700 fluorescence intensity (a.u.)"

[[record]]
entry_sequence = "GGGAGGACGAAGGAACGCCAATACCGACATTGCTCAAGCTCGGAGTCACCTAGTGCAG"
readout_type = "binding signal"
result = "65300 fluorescence intensity (a.u.)"

[[record]]
entry_sequence = "CTTGCCGTCGACGCGAAGGAACCGCCACCCGACGTCAGCTCGGAGTCACCTAGTGCAG"
readout_type = "binding signal"
result = "5610 fluorescence intensity (a.u.)"

[[record]]
entry_sequence = "CCATGGCACCTCCTCCTACGCCAGCACCGCTGCCGTGATGCGGAGTCACCTAGTGCAG"
readout_type = "binding signal"
result = "4800 fluorescence intensity (a.u.)"

[[record]]
entry_sequence = "TGAGGGCCGCCACGTCCTCATGGCCTCCGCCCCATCGGAGCGGAGTCACCTAGTGCAG"
readout_type = "binding signal"
result = "7660 fluorescence intensity (a.u.)"


Assign binding signal to the following record: CTTGCCGTCGAAGCGAAGGAACCGCCACCCGACGTCAGCTCGGAGTCACCTAGTGCAG 5050 fluorescence intensity (a.u.)

Return binding signal (reported value) for this sequence: TCTGACTGCCTCCGTCACTCCGTGCCTCGTTGGGAGCAGCCGGAGTCACCTAGTGCAG 5300 fluorescence intensity (a.u.)

Supply reported binding signal belonging to this sequence: CTGAGCTGCCACCTCCGCCGCCGCCAGCATGATGGCCTTGCGGAGTCACCTAGTGCAG 42500 fluorescence intensity (a.u.)

Please report the measured binding signal for GACTTGCGGCCACGGAGTCAGGGCCGTGCACGTGGAGGTACGGAGTCACCTAGTGCAG 4910 fluorescence intensity (a.u.)
